# subjectOfTest: T1, Recombinant soluble extracellular domain of cynomolgus monkey MerTK (cynomolgus monkey, UniProt Q12866 21-505 (human entry))
# T1 construct: SPR analyte; also called cMerTK; Cynomolgus MerTK
# T1 chain: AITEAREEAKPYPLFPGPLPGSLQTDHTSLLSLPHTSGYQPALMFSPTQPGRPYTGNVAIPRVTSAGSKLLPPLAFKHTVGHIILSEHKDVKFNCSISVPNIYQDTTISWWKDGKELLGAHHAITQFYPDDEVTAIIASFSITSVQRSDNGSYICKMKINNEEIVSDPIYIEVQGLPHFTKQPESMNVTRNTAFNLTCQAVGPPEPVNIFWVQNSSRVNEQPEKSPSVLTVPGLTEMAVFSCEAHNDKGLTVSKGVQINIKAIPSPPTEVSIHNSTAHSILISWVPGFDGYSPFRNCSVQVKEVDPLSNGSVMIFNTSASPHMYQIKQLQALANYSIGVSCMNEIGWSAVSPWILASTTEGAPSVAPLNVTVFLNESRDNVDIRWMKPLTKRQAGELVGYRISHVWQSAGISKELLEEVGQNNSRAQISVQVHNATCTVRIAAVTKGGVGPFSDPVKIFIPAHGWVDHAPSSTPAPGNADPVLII
# assayProtocol: SPR, mAb captured, soluble MerTK ECD as analyte, 37 C
# Experimental: MerTK Abs were captured on the chip. Recombinant soluble forms of the extracellular domains of human, cynomolgus monkey, and mouse MerTK polypeptide were injected as analytes at multiple concentrations each. The resulting sensorgrams were double-referenced and fitted to a 1:1 Langmuir binding model with mass transport.
Classification field: true = t1/2 at or over 8 min; false = t1/2 under 8 min.

A selection of reference data follows.
{"columns": ["binder", "classLabel"],
 "data": [
  ["HuMAb 10K11 (antibody, human IgG1, kappa, V domains shown, Human anti-hMerTK mAb, Bin 1) VH: QLQLQESGPGLVKPSETLSLTCAVSGYSISSDYSWGWIRQPPGKGLEWIGSIYHSGNTYFNPSLKSRVTISVDTSKNQFSLKLSSVTAADTAVYYCARDKSYYFGPGSMDVWGQGTTVTVSS VL: AIQLTQSPSSLSASVGDRVTITCRASQGISSALAWYQQKPGKAPKLLIYDASSLESGVPSRFSGSGSGTDFTLTISSLQPEDFATYYCQQFKSYLTFGQGTRLEIKR", "false"],
  ["HuMAb 22I16 (antibody, human IgG1, kappa, V domains shown, Human anti-hMerTK mAb, Bin 1; also called 22116) VH: EVQLVESGGGLVQPGGSLRLSCAASGFTFSSYSMNWVRQAPGKGLEWVSYIISGSDTIFYADSVKGRFTISRDNAKNSLYLQMNSLRDEDTAVYYCARDETVVRGVINYFDYWGQGTLVTVSS VL: AIQLTQSPSSLSASVGDRVTITCRSSQGISSALAWYQQKPGKAPKLLIYDASSLESGVPSRFSGSGSGTDFTLTISSLQPEDFATYYCQQFISYPTFGQGTRLEIKR", "true"],
  ["HuMAb 25J80 (antibody, human IgG1, kappa, V domains shown, Human anti-hMerTK mAb, Bin 2, derived from HuMAb 25B10 by optimization) VH: QVQLVQSGAEVKKPGASVKVSCKTSGRTFIRYYMHWVRQAPGQGLEWMGIIWPNGDQTTYAQKFQGRVTMTRDTSTSTVYMELSSLRSEDTAVYYCATTYKYAMDVWGQGTTVTVSS VL: EIVLTQSPGTLSLSPGERATLSCRASQSVRSNYLAWYQQKPGQAPRLLIYGASSRATGIPDRFSGSGSGTDFTLTISRLEPEDFAVYYCQQYESPPRTFGQGTKVEIKR", "false"],
  ["HuMAb 8N42 (antibody, V domains shown, Human anti-hMerTK mAb, Bin 1) VH: QVQLQQWGAGLLKPSETLSLTCAVYGGSFSIYYWSWIRQPPGKGLELIGEINDEGNTNYNPSLKSRVTISVDTSKNQFSLKLSSVTAADTAVYYCARGGTGDIHAFDIWGQGTMVTVSS VL: DIQMTQSPSSLSASVGDRVTITCRASQGISKWLAWYQQKPEKAPKSLIYAASSLQSGVPSRFSGSGSGTDFTLTISSLQPEDFATYYCQQYNSYPWTFGQGTKVEIKR", "true"]
]}

Please look at the following binder next.
Say whether Humanized mAb 4M60 (antibody, human IgG1, kappa, V domains shown, Humanized variant of moMAb 4E9, Bin 2) VH: QVQLVQSGSELKKPGASVKVSCKASGNTFTTYGMSWVRQAPGQGLEWMGWINNYSGVSTYADDFKGRFVFSLDTSVSTAYLQISSLKAEDTAVYYCARDYYGSGGWVFDYWGQGTTVTVSS VL: DVVMTQSPLSLPVTLGQPASISCKSSQSLLDSEGKTYLNWLQQRPGQSPRRLMYLVSKLDSGVPDRFSGSGSGTDFTLKISRVEAEDVGVYYCWQGTHFPRTFGGGTKVEIKR shows t1/2 of 8 min or more. true
